Numbers sourced from the supplement of paper PMC10567573.

B1: POMT2 (parent)
chain: VLRSRIRFIHLVTGCVLGSSGKVL

Variants of: B1
procedure summary: protein stability index of a GFP-peptide fusion (GPS, HEK-293T) (PSI 1-6); higher = more stable;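 note: lentivirally expressed fusions sorted by FACS into six bins by GFP to DsRed ratio, PSI derived from sequencing read proportions per bin multiplied by bin number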
cond: c terminus: a fixed tail appended
Where protein stability index equals or exceeds 3, the correct label is 1 (yes); where it does not, the label is 0 (no).

Assess whether reported protein stability index for "VLRSRIRFIHSVTGCVLGSSGKVL" sits at 3 or higher.
1 (yes)

Assess whether reported protein stability index for "VLRSRIRFPHLVTGCVLGSSGKVL" sits at 3 or higher.
0 (no)

Assess whether reported protein stability index for "VLRSRIMFIHLVTGCVLGSSGKVL" sits at 3 or higher.
1 (yes)

Assess whether reported protein stability index for "VLESRIRFIHLVTGCVLGSSGKVL" sits at 3 or higher.
0 (no)

Assess whether reported protein stability index for "VLRSRIRFIHIVTGCVLGSSGKVL" sits at 3 or higher.
0 (no)

Assess whether reported protein stability index for "VLFSRIRFIHLVTGCVLGSSGKVL" sits at 3 or higher.
0 (no)

Assess whether reported protein stability index for "VLHSRIRFIHLVTGCVLGSSGKVL" sits at 3 or higher.
0 (no)

Assess whether reported protein stability index for "VLRSRIRFIHLVTGMVLGSSGKVL" sits at 3 or higher.
0 (no)

Assess whether reported protein stability index for "VLRSRIRFIHLVTGCVLESSGKVL" sits at 3 or higher.
0 (no)

Assess whether reported protein stability index for "VLRSRIRFIHLVTGCVLGSSGFVL" sits at 3 or higher.
0 (no)

Assess whether reported protein stability index for "VLRSRIRFIHLVTGCVLGTSGKVL" sits at 3 or higher.
1 (yes)

Assess whether reported protein stability index for "VLRSRIRFIHLVHGCVLGSSGKVL" sits at 3 or higher.
0 (no)

Assess whether reported protein stability index for "VLRSRIRWIHLVTGCVLGSSGKVL" sits at 3 or higher.
0 (no)

Assess whether reported protein stability index for "VLRSRIRFIHLVTGCVLGSWGKVL" sits at 3 or higher.
0 (no)

Assess whether reported protein stability index for "VLRSRIRFLHLVTGCVLGSSGKVL" sits at 3 or higher.
0 (no)

Assess whether reported protein stability index for "VKRSRIRFIHLVTGCVLGSSGKVL" sits at 3 or higher.
1 (yes)

Assess whether reported protein stability index for "VLRSRMRFIHLVTGCVLGSSGKVL" sits at 3 or higher.
0 (no)

Assess whether reported protein stability index for "VLRSHIRFIHLVTGCVLGSSGKVL" sits at 3 or higher.
0 (no)

Assess whether reported protein stability index for "VLRSRIRFCHLVTGCVLGSSGKVL" sits at 3 or higher.
0 (no)

Assess whether reported protein stability index for "VLRSRTRFIHLVTGCVLGSSGKVL" sits at 3 or higher.
0 (no)

Assess whether reported protein stability index for "VLRSRIRFIHLVTGCVYGSSGKVL" sits at 3 or higher.
1 (yes)

Assess whether reported protein stability index for "VLRSRIRFIALVTGCVLGSSGKVL" sits at 3 or higher.
0 (no)

Assess whether reported protein stability index for "VLRSRIRFIHLVTGCVLGSSGYVL" sits at 3 or higher.
0 (no)

Assess whether reported protein stability index for "VLRSRIRFIHLVTICVLGSSGKVL" sits at 3 or higher.
1 (yes)

Assess whether reported protein stability index for "VLRSRIRFIHLVTGCVLGSSGSVL" sits at 3 or higher.
0 (no)

Assess whether reported protein stability index for "VLRNRIRFIHLVTGCVLGSSGKVL" sits at 3 or higher.
1 (yes)

Assess whether reported protein stability index for "VLRSSIRFIHLVTGCVLGSSGKVL" sits at 3 or higher.
0 (no)

Assess whether reported protein stability index for "VLRSRIRFIHLQTGCVLGSSGKVL" sits at 3 or higher.
0 (no)

Assess whether reported protein stability index for "VPRSRIRFIHLVTGCVLGSSGKVL" sits at 3 or higher.
0 (no)

Assess whether reported protein stability index for "VLRIRIRFIHLVTGCVLGSSGKVL" sits at 3 or higher.
0 (no)

Assess whether reported protein stability index for "VLRSRIRFIHLVTGCVLGSFGKVL" sits at 3 or higher.
0 (no)

Assess whether reported protein stability index for "VLRSRIRFIHLVTGCVLRSSGKVL" sits at 3 or higher.
0 (no)

Assess whether reported protein stability index for "VLRSRIRFIHLVTGCVLGSSTKVL" sits at 3 or higher.
0 (no)

Assess whether reported protein stability index for "VLRSRVRFIHLVTGCVLGSSGKVL" sits at 3 or higher.
1 (yes)

Assess whether reported protein stability index for "VLRSRIRFIHLVTGCVLGSPGKVL" sits at 3 or higher.
0 (no)

Assess whether reported protein stability index for "VLRSRIRFIDLVTGCVLGSSGKVL" sits at 3 or higher.
0 (no)

Assess whether reported protein stability index for "VLRSRIRFIHLVTGCVLKSSGKVL" sits at 3 or higher.
0 (no)

Assess whether reported protein stability index for "MLRSRIRFIHLVTGCVLGSSGKVL" sits at 3 or higher.
1 (yes)

Assess whether reported protein stability index for "VLRSRIRFIHLVTGCVLGSSGKQL" sits at 3 or higher.
1 (yes)

Assess whether reported protein stability index for "VLRSRIRFIHLVTGCVLGSSSKVL" sits at 3 or higher.
1 (yes)

Assess whether reported protein stability index for "VLRSRIRFIHLVTGCVAGSSGKVL" sits at 3 or higher.
0 (no)

Assess whether reported protein stability index for "VRRSRIRFIHLVTGCVLGSSGKVL" sits at 3 or higher.
1 (yes)

Assess whether reported protein stability index for "VLRSRIGFIHLVTGCVLGSSGKVL" sits at 3 or higher.
0 (no)

Assess whether reported protein stability index for "VLRKRIRFIHLVTGCVLGSSGKVL" sits at 3 or higher.
1 (yes)

Assess whether reported protein stability index for "VIRSRIRFIHLVTGCVLGSSGKVL" sits at 3 or higher.
0 (no)

Assess whether reported protein stability index for "VLRSLIRFIHLVTGCVLGSSGKVL" sits at 3 or higher.
1 (yes)

Assess whether reported protein stability index for "VLRSRIRFIGLVTGCVLGSSGKVL" sits at 3 or higher.
1 (yes)

Assess whether reported protein stability index for "VLRSRIRFIHLVTGCVLGSSDKVL" sits at 3 or higher.
1 (yes)
